System: prostanoids
Assay: Inhibition of the metabolism of 14C-arachidonate in the blood platelets of rabbits: prostanoids route (TxB2, HHT)
Assay type: cell-based
Conditions: Oryctolagus cuniculus, Platelet, rabbit blood platelets; HHT; read-out: IC50 in the blood platelets, HHT
resultType: pIC50
pIC50 here is simply -log10 of the concentration when that concentration is written in mol/L.

CC(=NNc1nccs1)c1ccccc1N | 4.60

Here is the next item to consider.
// sample "O=C(O)c1cc(=NNc2nccs2)c2ccccc2o1" , its pIC50 was 4.70

----------
Each entry below lists one item and its recorded IC50 value.
System: prostanoids
Experiment: Inhibition of the metabolism of 14C-arachidonate in the blood platelets of rabbits: prostanoids route (TxB2, HHT)
Type: cell-based
Settings: rabbit blood platelets; HHT; read-out: IC50 in the blood platelets, HHT
Write the answer as a number in µM, unit excluded.

CC(=NNc1nccs1)c1cccs1 [Example 3d] | 50

Here is the next item to consider.
// sample CC(=NNc1nccs1)c1cccs1 [Example 3a] , its IC50 was 21
